Consider the following compounds and their measured % fluorescent cells increase readings.
assay: compound fluorescence in GFP channel, mTEFS cells – imaging, mTEFS fibroblasts, cherry-pick, artefact control for X-chromosome reactivation project, dose response (AID 743396); conditions: mTEFS fibroblasts autofluorescence, GFP-channel imaging, 3 days; at 19.5 µM (top of the series); cells pretreated with 5-aza-dC;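 further: raw share of Hoechst-counted cells scored GFP positive without control normalization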
ENDPOINT: % fluorescent cells increase (%)

COMPOUND	VALUE UNITS	TEST RESULT
CCn1nc(C)cc1-c1nnc(Sc2ncc([N+](=O)[O-])s2)n1C	%	0
COc1ccc(N(CC(=O)Nc2nccs2)S(=O)(=O)c2c(C)[nH]c(=O)[nH]c2=O)cc1	%	0
CCC1Oc2ccc(C)cc2N(CC(=O)N2CCCC2)C1=O (stereo not given)	%	0.001
Cc1ccc(S(=O)(=O)N(C)C[C@H]2Oc3ccc(NC(=O)Nc4ccccc4)cc3CC(=O)N([C@H](C)CO)C[C@@H]2C)cc1	%	0
O=S(=O)(Nc1cc(Sc2cccc3cccnc23)c(O)c2ccccc12)c1ccccc1	%	-0.003

* * *

test: compound fluorescence in GFP channel, mTEFS cells – imaging, mTEFS fibroblasts, cherry-pick, artefact control for X-chromosome reactivation project, dose response (AID 743396); conditions: mTEFS fibroblasts autofluorescence, GFP-channel imaging, 3 days; at 19.5 µM (top of the series); cells pretreated with 5-aza-dC;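 further: raw share of Hoechst-counted cells scored GFP positive without control normalization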

COMPOUND	VALUE UNITS	% fluorescent cells increase
COc1ccc(NC(=O)C(C)N2C(=O)c3ccccc3C2=O)c(OC)c1 (stereo not given)	%	0.081
COc1ccccc1/C=C/C(=O)OCCCN(C)C	%	0
Cc1ccc(S(=O)(=O)Nc2cccc3c2O[C@H](CN(C)C(=O)Nc2cccc4ccccc24)[C@H](C)CN([C@H](C)CO)C3=O)cc1	%	0.048
COc1ccc(S(=O)(=O)Nc2ccc3c(c2)C(=O)N([C@@H](C)CO)C[C@H](C)[C@H](CN(C)C(=O)CCCN(C)C)OCCCC[C@H](C)O3)cc1	%	0.13
O=C(O)c1ccccc1C1Nc2ccccc2C(=O)N1CCCN1CCOCC1 (stereo not given)	%	-0.004

* * *

Consider the following molecules and their measured % fluorescent cells increase readings.
assay: compound fluorescence in GFP channel, mTEFS cells – imaging, mTEFS fibroblasts, cherry-pick, artefact control for X-chromosome reactivation project, dose response (AID 743396); conditions: mTEFS fibroblasts autofluorescence, GFP-channel imaging, 3 days; at 19.5 µM (top of the series); cells pretreated with 5-aza-dC;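 further: raw share of Hoechst-counted cells scored GFP positive without control normalization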

MOLECULE	% fluorescent cells increase, %
C[C@@H]1CCCCO[C@@H](CN(C)C(=O)Nc2ccc(C(F)(F)F)cc2)[C@@H](C)CN([C@H](C)CO)C(=O)c2cc(NS(=O)(=O)c3ccc(F)cc3)ccc2O1	-0.166
Cc1ccc(NC(=O)c2ncn(CCCNCCCN(C)C)n2)cc1C	0
Cc1c(CN2CCCC(C(=O)c3cccc(OC(C)C)c3)C2)c(=O)n(-c2ccccc2)n1C (stereo not drawn)	0.037
C[C@H](CO)N1C[C@H](C)[C@H](CN(C)C(=O)Nc2ccc(F)cc2)Oc2ncc(C#Cc3cccc(F)c3)cc2C1=O	-0.166
C[C@H]1CN([C@@H](C)CO)C(=O)c2ccccc2-c2ccccc2CO[C@H]1CN(C)C(=O)[C@@H](Cc1ccccc1)N(C)C	0
Cn1c(=O)[nH]c(=O)c2c1nc1n2CCCN1Cc1ccccc1	-0.011
O=C(c1nc(SCc2ccc([N+](=O)[O-])cc2)n2ccccc12)C(F)(F)F	0.04
CC(C)(C)[S@@](=O)N1Cc2cc(C(=O)N3CCCCC3)nc(-c3cccc(-c4cccc(C#N)c4)c3)c2[C@H]1CCO	0.101
